Attribution: ChEMBL document CHEMBL1201862

Tested on: RXF 393
experiment: NCI tumour cell line growth inhibition, 48 h
The source made the active and inactive calls. Cut-off read from the data, not from the text of the source: active = GI50 up to about 1.1 µM and inactive = higher. Positions of bridges follow the written chain, without caps; N, C: chain ends. Non-standard residues stand in square brackets, D forms with d. Residues, ends and D or L forms follow the SMILES beside them. ξ: configuration not given here. *: point of attachment. X28 = O=C(/C=C/C=C/C=C/C=C/C=C/C(=O)*)NC1=C(O)CCC1=O; Pro(4R-Me) = C[C@H]1CN[C@H](C(=O)O)C1; NMeA = CN[C@@H](C)C(=O)O; ξF = NC(Cc1ccccc1)C(=O)O; ξA = CC(N)C(=O)O
One label from this list, please: active, inactive

[in] Could you kindly confirm the outcome this assay logged for COP(=O)(OC)C1=c2c(C)noc2=C2C=COC2C1=O (stereo not given) ?
[out] inactive

[in] What classification did COc1ccc2c(C)cc(N/N=C(\C)C=O)nc2c1 end up with in this test?
[out] inactive

[in] Tell me the assay call for COCCn1cnc2c(Cl)nc(Nc3ccccc3)nc21 please.
[out] inactive

[in] GET /call?item= Oc1nc2ccccc2c2oc3ccccc3c12 returns the recorded outcome of this test.
[out] inactive

[in] Give the logged outcome of this assay for the following molecule: C/C(=N\Nc1nc2cccnc2s1)c1ccccn1
[out] active

[in] Just curious, what result did O=C1CN(c2ccccc2)Cc2nc(Cl)ccc2N1 get here?
[out] inactive

[in] State the result this test recorded for C/C=C1\CC(C(=O)OCC)CCCCCCCCCCC1=O (stereo not given) .
[out] inactive

[in] Per the assay record, what outcome was assigned to CC1CCSC(N(C(=O)N(C)c2ccccc2)c2ccccc2)=N1 (stereo not given) ?
[out] inactive

[in] Look up the recorded call for N/C(=N\O)N/N=C\c1ccc(O)c(O)c1O in this test.
[out] inactive

[in] Entry Cc1nn(C(=O)c2ccncc2)c2c1C(c1ccccc1)SC(=N)N2 (stereo not given) : call = ?
[out] inactive

[in] Please state the recorded outcome for this molecule: CCOC(=O)/C=C(/C(=O)OCC)n1cc(C)c(=O)n(/C(=C/C(=O)OCC)C(=O)OCC)c1=O
[out] inactive

[in] Can you look up the reported call for CNC(=O)NCCCC(NC(C)=O)C(=O)NCc1ccccc1 (stereo not given) for me?
[out] inactive

[in] Which outcome was entered for the molecule O=C1Nc2ccccc2C(=O)O/C(Cc2ccccc2)=N\c2ccccc21 in this test?
[out] inactive

[in] Dear colleague, could you share the recorded outcome for Cc1cccc(/C=C2/C(=O)Nc3ccccc32)n1 when you have a moment?
[out] inactive

[in] For CC(=O)Nc1nc(NC(C)=O)c2nc(CO)[nH]c2n1 , what call appears in the results of this test?
[out] inactive

[in] // param item: CSc1nc(O)c2cn(Cc3ccccc3)nc2n1 ; yields the recorded call
[out] inactive

[in] Field: outcome | Entry: CC1NC(=O)[C@H](C)N(C)C(=O)[C@@H]2CCCN2C(=O)[C@@H](NC(=O)C(Cc2ccccc2)NC(=O)/C=C/C=C/C=C/C=C/C=C/C(=O)NC2=C(O)CCC2=O)COC(=O)[C@@H]2C[C@@H](C)CN2C1=O (stereo partly drawn) (X28-[ξF]SP[NMeA][ξA][Pro(4R-Me)]; ester 2-C)
[out] inactive

[in] Record request — test call for NCCCCN(CCCN)/[N+]([O-])=N\O
[out] inactive

[in] Recorded test outcome, item C=C(C)C1CC[C@@](C)(O)[C@H](C#N)C1 (stereo not given in full)
[out] inactive

[in] Record request — test call for COc1ccc(-c2[nH]c(-c3ccc(OC)cc3)c(-c3ccccn3)c2-c2ccccn2)cc1
[out] inactive

[in] Record lookup: outcome of this test for O=c1cc(-c2ccccc2)oc2cc(OCCSCCCCCCCCCCSCCOc3ccc4c(=O)cc(-c5ccccc5)oc4c3)ccc12 ?
[out] inactive

[in] # lookup: test call for O=C(O)c1oc2cccc3c2c1CCC3
[out] inactive

[in] Record lookup: outcome of this test for Brc1ccc2c(-c3csc(-c4c[nH]c5ccccc45)n3)c[nH]c2c1 ?
[out] inactive

[in] GET /call?item= C=C=C(CC)C(C(=O)OC)N(CC)CC (stereo not given) returns the recorded outcome of this test.
[out] inactive

[in] Called result for NC(=S)Nc1c(S(N)(=O)=O)cc(S(N)(=O)=O)c(Cl)c1Cl
[out] inactive
